Just for reference, patent US20060045953A1 is where these values come from.

Test target: hT1R2/hT1R3 sweet receptor (Homo sapiens, UniProt Q7RTX0+Q8TE23)
Construct: expressed in transfected cells; host or cells: HEK293 derivative stably expressing Gα15, clone S-9
Sequence (Q8TE23 20-839): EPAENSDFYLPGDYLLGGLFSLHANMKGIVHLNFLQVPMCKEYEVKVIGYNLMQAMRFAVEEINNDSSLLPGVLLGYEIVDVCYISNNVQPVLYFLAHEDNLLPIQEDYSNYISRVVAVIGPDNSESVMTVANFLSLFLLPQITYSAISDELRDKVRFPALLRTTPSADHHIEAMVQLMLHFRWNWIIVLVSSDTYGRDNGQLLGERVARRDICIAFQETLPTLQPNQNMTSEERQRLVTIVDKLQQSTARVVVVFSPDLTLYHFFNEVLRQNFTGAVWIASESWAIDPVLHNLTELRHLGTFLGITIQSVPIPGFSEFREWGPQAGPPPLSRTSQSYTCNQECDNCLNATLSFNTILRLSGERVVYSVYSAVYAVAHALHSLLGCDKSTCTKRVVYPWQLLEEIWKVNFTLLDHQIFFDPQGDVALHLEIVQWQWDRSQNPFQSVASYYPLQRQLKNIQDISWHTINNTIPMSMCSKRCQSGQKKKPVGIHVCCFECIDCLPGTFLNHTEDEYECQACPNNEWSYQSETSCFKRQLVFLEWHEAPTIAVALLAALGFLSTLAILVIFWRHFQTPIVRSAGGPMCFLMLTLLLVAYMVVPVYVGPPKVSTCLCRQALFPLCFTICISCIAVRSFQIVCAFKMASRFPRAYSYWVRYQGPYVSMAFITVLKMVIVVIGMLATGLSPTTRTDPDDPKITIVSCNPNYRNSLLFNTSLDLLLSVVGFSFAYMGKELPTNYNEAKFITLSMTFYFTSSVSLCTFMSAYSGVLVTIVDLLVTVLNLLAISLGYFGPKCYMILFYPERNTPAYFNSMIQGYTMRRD
Sequence (Q7RTX0 21-852): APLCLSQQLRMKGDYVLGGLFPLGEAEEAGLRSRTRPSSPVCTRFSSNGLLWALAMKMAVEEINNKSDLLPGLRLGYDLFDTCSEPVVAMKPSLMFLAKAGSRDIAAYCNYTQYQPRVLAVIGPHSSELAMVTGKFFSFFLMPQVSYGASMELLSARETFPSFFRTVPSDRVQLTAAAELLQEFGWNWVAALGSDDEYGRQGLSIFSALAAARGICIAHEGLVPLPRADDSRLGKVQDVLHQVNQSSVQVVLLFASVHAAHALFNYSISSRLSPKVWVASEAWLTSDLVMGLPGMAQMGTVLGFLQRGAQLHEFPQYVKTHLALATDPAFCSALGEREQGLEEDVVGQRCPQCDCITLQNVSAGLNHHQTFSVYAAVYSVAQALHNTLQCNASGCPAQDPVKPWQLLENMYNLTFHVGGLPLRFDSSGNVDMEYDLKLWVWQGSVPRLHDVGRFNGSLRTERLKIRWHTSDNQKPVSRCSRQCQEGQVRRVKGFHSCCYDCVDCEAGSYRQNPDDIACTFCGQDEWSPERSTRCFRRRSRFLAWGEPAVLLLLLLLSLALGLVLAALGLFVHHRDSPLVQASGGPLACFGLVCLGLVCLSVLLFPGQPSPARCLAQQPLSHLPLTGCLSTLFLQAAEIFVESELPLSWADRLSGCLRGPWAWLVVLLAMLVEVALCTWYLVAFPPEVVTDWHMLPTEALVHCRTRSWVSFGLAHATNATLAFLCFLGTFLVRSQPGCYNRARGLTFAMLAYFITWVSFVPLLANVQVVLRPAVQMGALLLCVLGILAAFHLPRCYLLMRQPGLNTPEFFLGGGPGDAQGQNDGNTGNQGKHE
Protocol description: In vitro hT1R2/hT1R3 sweet taste receptor activation assay (FLIPR, dose response)
Assay type: cell-based
Details: Table E, Sweet Enhancer Amides; read-out: Sweet EC50
pEC50: −log10 of the molar value.
Property: pEC50

Cc1c(F)c(F)c(C(=O)N[C@@H](C)C(C)(C)C)c(F)c1F: 6.05
O=C(NC1CCc2ccccc21)c1cccc(Cl)c1O (stereo not drawn): 5.83
Cc1c(F)c(F)c(C(=O)NC2CCCCC2)c(F)c1F: 5.95
